Target of assay: human XIAP-BIR3 protein (residues 241-356) (Homo sapiens)
Assay info: biochemical
Peptide text beside a SMILES is read from it.
Measured endpoint: pKi
Scale for pKi: -log10 of concentration given in mol/L; no unit attached.

>  <Compound>
CNC(=O)[C@@H]1CCCN1C(=O)[C@@H](NC(=O)[C@H](C)N)C(C)C [CJ-452] (H-Ala-Val-Pro-NHMe)

>  <Target of assay>
human XIAP-BIR3 protein (residues 241-356) (Homo sapiens)

>  <Readout value>
4.09

$$$$

Let's switch to this compound now.
What value of measured pKi is listed for CC(C)[C@H](NC(=O)[C@H](C)N)C(=O)N1CCC[C@H]1C(=O)NCc1cccc2ccccc12 ?
6.15

---

System: MDA-231 breast cancer cell line
Assay info: MTT cell viability assay in MDA-231 cells
Type: cell-based
Test parameters: Homo sapiens, MDA-MB-231, 120 h; 5 days, MTT; read-out: EC50 growth inhibition
pEC50: −log10 of the molar value.
Measured endpoint: pEC50

Worked cases, answers included:
>  <Molecule>
CC[C@H](N)C(=O)N[C@H](C(=O)N1CCC[C@H]1C(=O)NC(c1ccccc1)c1ccccc1)c1ccccc1 [CJ-444]

>  <Target of assay>
MDA-231 breast cancer cell line

>  <Readout value>
3.89 to 3.92

$$$$
>  <Molecule>
CC[C@H](N)C(=O)N[C@H](C(=O)N1CCC[C@H]1C(=O)NC(c1ccccc1)c1ccccc1)C1CCCCC1.Cl [CJ-445]

>  <Target of assay>
MDA-231 breast cancer cell line

>  <Readout value>
3.89 to 3.92

$$$$

What value of measured pEC50 is listed for C[C@H](N)C(=O)N[C@H](C(=O)N1CCC[C@H]1C(=O)NC(c1ccccc1)c1ccccc1)c1ccccc1 [CJ-450] ?
3.89 to 3.92

---

The entries below come with measured pKi values attached.
Target of assay: human XIAP-BIR3 protein (residues 241-356) (Homo sapiens, UniProt P98170)
Sequence (P98170 241-356): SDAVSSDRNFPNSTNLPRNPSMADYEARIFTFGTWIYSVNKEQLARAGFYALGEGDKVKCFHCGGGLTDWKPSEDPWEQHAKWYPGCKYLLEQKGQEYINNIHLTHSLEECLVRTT
Assay info: biochemical
Scale for pKi: -log10 of concentration given in mol/L; no unit attached.

Worked cases, answers included:
>  <Input smiles>
CC(C)[C@H](NC(=O)[C@H](C)N)C(=O)N1CCC[C@H]1C(=O)NCc1ccccc1Cl

>  <Readout value>
5.76

$$$$
>  <Input smiles>
Cc1cccc(CNC(=O)[C@@H]2CCCN2C(=O)[C@@H](NC(=O)[C@H](C)N)C(C)C)c1

>  <Readout value>
5.92

$$$$
>  <Input smiles>
C[C@H](N)C(=O)N[C@H](C(=O)N1CCC[C@H]1C(=O)NC(c1ccccc1)c1ccccc1)C1CCCC1

>  <Readout value>
6.43

$$$$

What value of measured pKi is listed for CC(C)[C@H](NC(=O)[C@H](C)N)C(=O)N1CCC[C@H]1C(=O)NCc1c[nH]c2ccccc12 ?
4.39

---

Test system: PC-3 cells
Assay info: MTT cell viability assay in PC-3 cells
Assay type: cell-based
Test parameters: Homo sapiens, PC-3, read-out: EC50 growth inhibition
Measured endpoint: EC50

What value of measured EC50 is listed for C[C@H](N)C(=O)N[C@H](C(=O)N1CCC[C@H]1C(=O)NC(c1ccccc1)c1ccccc1)C1CCCCC1 ?
120 to 130 µM

---

The entries below come with measured pKi values attached.
Target of assay: human XIAP-BIR3 protein (residues 241-356) (Homo sapiens)
Assay info: biochemical
Peptide text beside a SMILES is read from it.
Scale for pKi: -log10 of concentration given in mol/L; no unit attached.

>  <Molecule>
Cc1ccc(CNC(=O)[C@@H]2CCCN2C(=O)[C@@H](NC(=O)[C@H](C)N)C(C)C)cc1

>  <pKi>
5.49

$$$$
>  <Molecule>
CC[C@H](N)C(=O)N[C@H](C(=O)N1CCC[C@H]1C(=O)NC(c1ccccc1)c1ccccc1)C1CCCCC1.Cl

>  <pKi>
5.95

$$$$
>  <Molecule>
CC(C)[C@H](NC(=O)[C@H](C)N)C(=O)N1CCC[C@H]1COC(c1ccccc1)c1ccccc1

>  <pKi>
5.26

$$$$
>  <Molecule>
CC(C)[C@H](NC(=O)CN)C(=O)N1CCC[C@H]1CCCc1ccccc1

>  <pKi>
5.49

$$$$
>  <Molecule>
COc1ccc(CNC(=O)[C@@H]2CCCN2C(=O)[C@@H](NC(=O)[C@H](C)N)C(C)C)cc1

>  <pKi>
4.93

$$$$

What value of measured pKi is listed for CC(C)[C@H](NC(=O)[C@H](C)N)C(=O)N1CCCC[C@H]1C(=O)NC(c1ccccc1)c1ccccc1 ?
3.80

Similarly, CC(C)[C@H](NC(=O)[C@H](C)N)C(=O)N1CCC[C@H]1CNCc1ccccc1 ?
4.59

Similarly, CC[C@H](N)C(=O)N[C@H](C(=O)N1CCC[C@H]1C(=O)NC(c1ccccc1)c1ccccc1)c1ccccc1 ?
4.87

Similarly, CCNC(=O)[C@@H]1CCCN1C(=O)[C@@H](NC(=O)[C@H](C)N)C(C)C [CJ-418] (H-Ala-Val-Pro-NHEt) ?
4.26

Similarly, CC(C)[C@H](NC(=O)[C@H](C)N)C(=O)N1CCC[C@H]1C(=O)NCc1ccc(O)cc1 ?
5.87

Similarly, C[C@H](N)C(=O)N[C@@H](CC1CCCCC1)C(=O)N1CCC[C@H]1C(=O)NC(c1ccccc1)c1ccccc1 ?
6.25

Similarly, CC(C)[C@H](NC(=O)[C@H](C)N)C(=O)N1CCC[C@H]1C(=O)NCCc1c[nH]c2ccccc12 ?
5.40

Similarly, CC[C@H](N)C(=O)N[C@H](C(=O)N1CCC[C@H]1C(=O)N[C@@H](Cc1ccccc1)c1ccccc1)C(C)C ?
5.51

Similarly, C[C@H](N)C(=O)N[C@H](C(=O)N1CCC[C@@H]1C(=O)NC(c1ccccc1)c1ccccc1)C1CC1 ?
5.45

Similarly, CC(C)[C@H](NC(=O)[C@H](C)N)C(=O)N1CC[C@H]1C(=O)NC(c1ccccc1)c1ccccc1 ?
6.11
